experiment description: NCI Yeast Anticancer Drug Screen. Data for the rad18 strain (AID 177)
experimental context: S. cerevisiae rad18 mutant growth inhibition; at 11.0 µM
About 79,000 compounds went through this panel and 15% of them were active in at least one assay; those are over-represented in the sample as a whole. Active and inactive are the calls of the source. No stated cut-off is given here; in the data, active means growth inhibition above about 70%; inactive means the rest.
Outcomes: class 1 for active, class 0 for inactive

COc1cc(C2c3cc4c(cc3[C@@H](Nc3ccc(N)cc3)C3COC(=O)[C@H]23)OCO4)cc(OC)c1O (stereo partly specified) :: class 1
O=S(=O)(O)c1ccc(Cl)cc1.[Cd] :: class 0
O=C1c2ccc3ccccc3c2CCC1N1CCCCC1 (stereo unspecified) :: class 0
C[N+](C)(C)CC1CCCC(C[N+](C)(C)C)C1=O (stereo unspecified) :: class 0
CSC(=Nc1ccccc1)N(c1ccccc1)c1nc(=[N+](C)C)ss1 :: class 1
CCC1(O)C(=O)OCc2c1cc1n(c2=O)Cc2c-1nc1ccccc1c2OC (stereo unspecified) :: class 0
